target: recombinant human KLK5 (human) (UniProt Q9Y337); test: SPR BIAcore T200, antibody captured by anti-human Fc, human KLK5 as analyte, 37 C
Sequence (Q9Y337 67-293): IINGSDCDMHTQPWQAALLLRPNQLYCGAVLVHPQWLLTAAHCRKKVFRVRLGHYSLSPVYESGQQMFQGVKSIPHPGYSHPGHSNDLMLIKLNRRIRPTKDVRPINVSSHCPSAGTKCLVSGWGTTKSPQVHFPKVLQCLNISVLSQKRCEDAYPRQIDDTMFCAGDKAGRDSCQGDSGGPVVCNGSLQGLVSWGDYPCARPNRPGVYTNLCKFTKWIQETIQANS
Here, each record is paired with measured koff data.
Supply the numeric figure in s⁻¹, leaving out any unit text.

hu3-3F5.L5H25 (antibody, human IgG1, V domains shown) VH: EVQLLESGGGLVQPGGSLRLSCAASGFSLNDYGVSWVRQAPGKGLEWVGAIGSSGVAWYANFAKGRFTISRDTSKNTVYLQMNSLRAEDTAVYYCARDRDYGYRADDATSGMDLWGRGTLVTVSS VL: AIRMTQSPSSFSASTGDRVTITCQASESIGNALAWYQQKPGKAPKLLIYDASDLASGVPSRFSGSGSGTDFTLTISSLQPEDFATYYCQQGDSHNNVDNIFGGGTKVEIK : 0.000235
9H5 (antibody, V domains shown) VH: QSVKESEGGLFKPTDNLTLTCTVSGFSLSSYGVSWVRQAPGNGLEYIGFIGSGGFAYYASWAKSRSTITRNTNLNTVTLKMTSLTAADTATYFCARDDVGGGKSLDIWGPGTVVTVSV VL: NIVMTQTPASVEAAVGGTVTINCQASQSISSYLSWYQQKSGQRPKLLIFSASTLASGVPSRFTGSGSGTQFTLTISDLQCADAATYYCHQDYTSSNVDNTFGGGTEVVVK : 0.000137

Attention now shifts to the item below.
Enquiry: Check the records and state koff for hu9H5.L4H14 (antibody, V domains shown) VH: EVQLVESGGGLIQPGGSLRLSCAASGFSLSSYGVSWVRQAPGKGLEYVGFIGSGGFAYYASWAKSRFTISRDNSKNTLYLQMNSLRAEDTAVYYCARDDVGGGKSLDIWGQGTLVTVSS VL: DIQMTQSPSSLSASVGDRVTITCQASQSISSYLSWYQQKPGKAPKLLIYSASTLASGVPSRFSGSGSGTDFTLTISSLQPEDFATYYCHQDYTSSNVDNTFGGGTKVEIK
Return: 0.000562
